- test.description: in vivo
- run.parameters: male, Sprague-Dawley, rat, po, 10 mg/kg
property.measured: Cmax (ng/mL)
# output: bare number, implied unit ng/mL

Tell me the measured Cmax of O=C(O)c1ccccc1/C=N/Nc1nc(-c2ccccc2Cl)cs1 , please.
5310

====

- study.target: hDHODH (Met30-Arg396) (Homo sapiens, UniProt Q02127)
- Construct: hDHODH (Met30-Arg396) was expressed and purified in the same manner as described in our recently published work; made in house
- Sequence (Q02127 29-395): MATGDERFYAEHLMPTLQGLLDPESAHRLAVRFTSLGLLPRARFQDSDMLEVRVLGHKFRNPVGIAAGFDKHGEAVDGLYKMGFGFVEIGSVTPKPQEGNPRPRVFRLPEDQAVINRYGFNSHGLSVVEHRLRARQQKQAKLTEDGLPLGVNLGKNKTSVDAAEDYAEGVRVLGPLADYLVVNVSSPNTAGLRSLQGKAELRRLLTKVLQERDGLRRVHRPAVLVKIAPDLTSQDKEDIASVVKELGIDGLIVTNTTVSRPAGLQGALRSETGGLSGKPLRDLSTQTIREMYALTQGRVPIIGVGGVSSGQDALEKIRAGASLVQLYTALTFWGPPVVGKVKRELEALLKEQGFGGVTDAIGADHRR
- test.description: hDHODH enzyme inhibition, DCIP assay
- Type: biochemical
- run.parameters: LLE = pIC50 − clogP
LLE for assorted compounds
When you answer, write just the number.

Write down the reported LLE of Oc1ccccc1/C=N/Nc1nc(-c2ccccc2Cl)cs1 , test system: hDHODH (Met30-Arg396) (Homo sapiens, UniProt Q02127).
0.76

Request body: readout LLE, system hDHODH (Met30-Arg396) (Homo sapiens, UniProt Q02127), query O=C(O)c1ccccc1/C=N/Nc1nc(-c2ccc3ccccc3c2)cs1 . Return the value.
1.43

Notebook entry, hDHODH (Met30-Arg396) (Homo sapiens, UniProt Q02127) assay: LLE of Cc1sc(N/N=C/c2ccccc2O)nc1-c1ccccc1 = ?
0.48

// lookup LLE | system=hDHODH (Met30-Arg396) (Homo sapiens, UniProt Q02127) | key= NC(=O)c1cccc(-c2csc(N/N=C/c3ccccc3C(=O)O)n2)c1
4.38

Notebook entry, hDHODH (Met30-Arg396) (Homo sapiens, UniProt Q02127) assay: LLE of O=C(O)c1ccccc1/C=N/Nc1nc(-c2ccccc2Cl)cs1 = ?
3.59

Enter reported LLE observed with hDHODH (Met30-Arg396) (Homo sapiens, UniProt Q02127) for O=C(O)c1c(F)cccc1/C=N/Nc1nc(-c2ccccc2Cl)cs1
2.66

Test system hDHODH (Met30-Arg396) (Homo sapiens, UniProt Q02127); read-out LLE; what value for O=Cc1ccccc1/C=N/Nc1nc(-c2ccccc2)cs1 ?
2.92

Where do the numbers come from? From paper PMC4595849.
